Data origin: patent US11890288B2

System: human castration-resistant prostate cancer PC-3 cell
Assay: Cytotoxic action on PC-3 cells (WST-8, 96 hr)
Type: cell-based
Settings: PC-3, 96 hr
Method: The cytotoxic action of the compound of the present invention against human cancer cells was evaluated in vitro. […] After culturing, the viable cell number was measured using a cell number measurement WST-8 kit (Kishida Chemical Co., Ltd.). […] It was calculated from the straight line connecting the cell survival rate at two points enclosing the 50% cell survival rate and the compound concentration. […]
VALUE_TYPE: IC50 (pM)

> print(dat)
                                 mol.smiles  test.result
1  COC(=O)C[C@@H]1N=C(c2ccc(-c3ccc(C(=O)NCc4ccc(S(=O)(=O)Nc5ccc(C)c6c(C#N)c[nH]c56)cc4)cc3)cc2)c2c(sc(C)c2C)-n2c(C)nnc21          880

###

Tested on: MDA-MB-436 w/o2 cells
Assay: Cytotoxic action on MDA-MB-436 w/o2 cells that acquired resistance to conventional BRD4 degraders (WST-8, 96 hr)
Type: cell-based, human
Conditions: IC50 in MDA-MB-436 w/o2 cells divided by IC50 in MDA-MB-436 cells
VALUE_TYPE: resistance (fold)

> print(dat)
                                 mol.smiles        measured.target  test.result
1  COC(=O)C[C@@H]1N=C(c2ccc(-c3ccc(C(=O)NCCc4ccc(S(=O)(=O)Nc5ccc(C)c6c(C#N)c[nH]c56)cc4)cc3)cc2)c2c(sc(C)c2C)-n2c(C)nnc21  MDA-MB-436 w/o2 cells          1.2
2  COC(=O)C[C@@H]1N=C(c2ccc(-c3ccc(C(=O)NCc4ccc(S(=O)(=O)Nc5ccc(C)c6c(C#N)c[nH]c56)cc4)cc3)cc2)c2c(sc(C)c2C)-n2c(C)nnc21  MDA-MB-436 w/o2 cells          1.3
3  COC(=O)C[C@@H]1N=C(c2ccc(-c3ccc(C(=O)NCCc4ccc(S(=O)(=O)Nc5ccc(C)c6c(C#N)c[nH]c56)cc4)cc3F)cc2)c2c(sc(C)c2C)-n2c(C)nnc21  MDA-MB-436 w/o2 cells          1.3

###

Test system: MDA-MB-436 w/o2 cells
Test: Cytotoxic action on MDA-MB-436 w/o2 cells that acquired resistance to conventional BRD4 degraders (WST-8, 96 hr)
Format: cell-based, human
Details: IC50 in MDA-MB-436 w/o2 cells divided by IC50 in MDA-MB-436 cells
VALUE_TYPE: resistance (fold)

MOLECULE	UNIT_LABEL	READOUT_QUALIFIER	TEST_RESULT
COC(=O)C[C@@H]1N=C(c2ccc(-c3ccc(C(=O)NCc4ccc(S(=O)(=O)Nc5ccc(C)c6c(C#N)c[nH]c56)cc4)nc3)cc2)c2c(sc(C)c2C)-n2c(C)nnc21	fold	=	1.5
CCc1ccc(NS(=O)(=O)c2ccc(CNC(=O)c3ccc(-c4ccc(C5=N[C@@H](CC(=O)OC)c6nnc(C)n6-c6sc(C)c(C)c65)cc4)cc3)cc2)c2[nH]cc(C#N)c12	fold	=	1.3
Cc1ncsc1-c1ccc(CNC(=O)[C@@H]2C[C@@H](O)CN2C(=O)[C@@H](NC(=O)COCCOCCOCCNC(=O)C[C@@H]2N=C(c3ccc(Cl)cc3)c3c(sc(C)c3C)-n3c(C)nnc32)C(C)(C)C)cc1 [MZ1, reference compound]	fold	>	26
Cc1ncsc1-c1ccc([C@H](C)NC(=O)[C@@H]2C[C@@H](O)CN2C(=O)[C@@H](NC(=O)COCCCOCCNC(=O)C[C@@H]2N=C(c3ccc(Cl)cc3)c3c(sc(C)c3C)-n3c(C)nnc32)C(C)(C)C)cc1 [ARV-771, reference compound]	fold	=	150

###

Molecular target: BRD4 protein (Homo sapiens (Human))
Experiment: BRD4 protein degradation inducing action in LNCaP cells (immunofluorescence, 6 hr)
Format: cell-based
Settings: anti-BRD4 fluorescence intensity
The following molecules are shown together with reported DC50 values.

MOL_SMILES	MEASURED_TARGET	UNIT_LABEL	DC50
CCc1ccc(NS(=O)(=O)c2ccc(CNC(=O)c3cnc(-c4ccc(C5=N[C@@H](CC(=O)OC)c6nnc(C)n6-c6sc(C)c(C)c65)cc4)cn3)cc2)c2[nH]cc(C#N)c12	BRD4 protein (Homo sapiens (Human))	nM	0.054
COC(=O)C[C@@H]1N=C(c2ccc(-c3ccc(C(=O)NCc4ccc(S(=O)(=O)Nc5ccc(C)c6c(C#N)c[nH]c56)cc4)s3)cc2)c2c(sc(C)c2C)-n2c(C)nnc21	BRD4 protein (Homo sapiens (Human))	nM	0.22
COC(=O)C[C@@H]1N=C(c2ccc(-c3ccc(C(=O)N[C@H](C)c4ccc(S(=O)(=O)Nc5ccc(C)c6c(C#N)c[nH]c56)cc4)cc3C)cc2)c2c(sc(C)c2C)-n2c(C)nnc21	BRD4 protein (Homo sapiens (Human))	nM	0.37

###

Test system: human AR-V7 positive castration-resistant prostate cancer 22Rv1 cell
Assay: Cytotoxic action on 22Rv1 cells (WST-8, 96 hr)
Assay type: cell-based
Conditions: 22Rv1, 96 hr
pIC50: −log10 of the molar value.
VALUE_TYPE: pIC50

> print(dat)
                                 mol.smiles                           measured.target  test.result
1  COC(=O)C[C@@H]1N=C(c2ccc(-c3ccc(C(=O)NCc4ccc(S(=O)(=O)Nc5ccc(C)c6c(C#N)c[nH]c56)cc4)cc3)cc2)c2c(sc(C)c2C)-n2c(C)nnc21  human AR-V7 positive castration-resistant prostate cancer 22Rv1 cell         9.15

###

System: human breast cancer ZR-75-1 cell
Assay: Cytotoxic action on ZR-75-1 cells (WST-8, 96 hr)
Assay type: cell-based
Conditions: ZR-75-1, 96 hr
pIC50: −log10 of the molar value.
VALUE_TYPE: pIC50

> print(dat)
                                 mol.smiles  test.result
1  COC(=O)C[C@@H]1N=C(c2ccc(-c3ccc(C(=O)NCc4ccc(S(=O)(=O)Nc5ccc(C)c6c(C#N)c[nH]c56)cc4)cc3)cc2)c2c(sc(C)c2C)-n2c(C)nnc21         7.57

###

The following compounds are shown together with reported DC50 values.
Target: UniProt:O60885
Assay: BRD4 protein degradation inducing action in LNCaP cells (immunofluorescence, 6 hr)
Type: cell-based
Conditions: anti-BRD4 fluorescence intensity
Protocol: The degradation inducing action of the compound of the present invention on BRD4 proteins in cancer cells was evaluated in vitro using human prostate cancer LNCaP cells. […] After incubation for 1 hr, BRD4 protein amount was measured by Operetta (Perkin Elmer) as fluorescence intensity (excitation: 560 nm, emission: 572 nm). […] The DC50 value is a concentration of the compound showing 50% fluorescence intensity when the fluorescence intensity thereof under compound untreated condition is 100%. […]

MOL_SMILES	MEASURED_TARGET	DC50 / nM
COC(=O)C[C@@H]1N=C(c2ccc(-c3cnc(C(=O)NCc4ccc(S(=O)(=O)Nc5ccc(C)c6c(C#N)c[nH]c56)cc4)nc3)cc2)c2c(sc(C)c2C)-n2c(C)nnc21	UniProt:O60885	0.26
COC(=O)C[C@@H]1N=C(c2ccc(-c3cnc(C(=O)NCc4ccc(S(=O)(=O)Nc5ccc(C)c6c(C#N)c[nH]c56)cc4)cn3)cc2)c2c(sc(C)c2C)-n2c(C)nnc21	UniProt:O60885	0.036
Cc1sc2c(c1C)C(c1ccc(-c3ccc(C(=O)NCc4ccc(S(=O)(=O)Nc5ccc(C)c6c(C#N)c[nH]c56)cc4)cc3)cc1)=N[C@@H](CC(=O)OC(C)(C)C)c1nnc(C)n1-2	UniProt:O60885	0.23
COC(=O)C[C@@H]1N=C(c2ccc(-c3ccc(C(=O)NCc4ccc(S(=O)(=O)Nc5ccc(C)c6c(C#N)c[nH]c56)cc4)c(C)c3)cc2)c2c(sc(C)c2C)-n2c(C)nnc21	UniProt:O60885	0.13
Cc1sc2c(c1C)C(c1ccc(-c3ccc(C(=O)NCc4ccc(S(=O)(=O)Nc5ccc(C)c6c(C#N)c[nH]c56)cc4)cc3)cc1)=N[C@@H](C)c1nnc(C)n1-2	UniProt:O60885	0.42
CCc1ccc(NS(=O)(=O)c2ccc(CCNC(=O)c3cnc(-c4ccc(C5=N[C@@H](CC(=O)OC)c6nnc(C)n6-c6sc(C)c(C)c65)cc4)cn3)cc2)c2[nH]cc(C#N)c12	UniProt:O60885	0.046
Cc1sc2c(c1C)C(c1ccc(-c3cc(Cl)c(C(=O)NCc4ccc(S(=O)(=O)Nc5ccc(C)c6c(C#N)c[nH]c56)cc4)cc3F)cc1)=N[C@@H](C)c1nnc(C)n1-2	UniProt:O60885	0.32
COC(=O)C[C@@H]1N=C(c2ccc(-c3ccc(C(=O)NCc4ccc(S(=O)(=O)Nc5ccc(C)c6c(C#N)c[nH]c56)cc4)c(F)c3F)cc2)c2c(sc(C)c2C)-n2c(C)nnc21	UniProt:O60885	0.092
Cc1sc2c(c1C)C(c1ccc(-c3ccc(C(=O)NCc4ccc(S(=O)(=O)Nc5ccc(C)c6c(C#N)c[nH]c56)cc4)cc3)cc1)=N[C@@H](CC(=O)N(C)C)c1nnc(C)n1-2	UniProt:O60885	5.6
CCc1ccc(NS(=O)(=O)c2ccc(CNC(=O)c3ccc(-c4ccc(C5=N[C@@H](CC(=O)OC)c6nnc(C)n6-c6sc(C)c(C)c65)cc4)cc3F)cc2)c2[nH]cc(C#N)c12	UniProt:O60885	0.25
